- TEST DESCRIPTION: Preliminary assessment of in vivo pharmacokinetics in rats
- SETUP CONDITIONS: rat, plasma, po, 20 mg/kg, rats; intragastric 20 mg/kg; individual animals 4-6
METRIC: half-life (min)
Answer in min, number only, no unit symbol.

Recorded half-life (compound CC(C)Oc1ccc(-c2nc(-c3ccc(CN4CC(C(=O)O)C4)c4ccccc34)no2)cc1C#N.Cl [Compound A1] ): 147

====

- TEST DESCRIPTION: Preliminary assessment of in vivo pharmacokinetics in rats
- SETUP CONDITIONS: rat, plasma, oral, 20 mg/kg, intragastric 20 mg/kg; 4 h; individual animals 4-6; read-out: Plasma drug concentrations in rats
METRIC: concentration at 4 h (ng/mL)
Answer in ng/mL, number only, no unit symbol.

Recorded concentration at 4 h (compound "CC(C)Oc1ccc(-c2nc(-c3ccc(CN4CC(C(=O)O)C4)c4ccccc34)no2)cc1C#N.Cl" ): 884

====

- TEST DESCRIPTION: Preliminary assessment of pharmacokinetics in mice
- Format: in vivo, CD-1 mice
- SETUP CONDITIONS: male, CD-1, mouse, plasma, ip, 20 mg/kg, intraperitoneal injection 20 mg/kg; 0.75 h; mean; read-out: Concentration of A1 Drug in Plasma of Mice
METRIC: concentration at 0.75 h (ng/mL)
Answer in ng/mL, number only, no unit symbol.

Recorded concentration at 0.75 h (compound CC(C)Oc1ccc(-c2nc(-c3ccc(CN4CC(C(=O)O)C4)c4ccccc34)no2)cc1C#N.Cl [Compound A1] ): 2020

====

- TEST DESCRIPTION: Preliminary assessment of in vivo pharmacokinetics in rats
- SETUP CONDITIONS: rat, plasma, iv, 2 mg/kg, rats; intravenous 2 mg/kg; mean
METRIC: AUC(0-inf) (ng·h/mL)
Answer in ng·h/mL, number only, no unit symbol.

Recorded AUC(0-inf) (molecule "CC(C)Oc1ccc(-c2nc(-c3ccc(CN4CC(C(=O)O)C4)c4ccccc34)no2)cc1C#N.Cl" ): 3860

====

- TEST DESCRIPTION: Preliminary evaluation of pharmacokinetics in Beagle dogs
- Format: in vivo
- SETUP CONDITIONS: beagle, dog, plasma, iv, 0.5 mg/kg, intravenous 0.5 mg/kg; 1 h; individual animals 1-3; read-out: Plasma drug concentration in Beagle dogs
METRIC: concentration at 1 h (ng/mL)
Answer in ng/mL, number only, no unit symbol.

Recorded concentration at 1 h (molecule CC(C)Oc1ccc(-c2nc(-c3ccc(CN4CC(C(=O)O)C4)c4ccccc34)no2)cc1C#N.Cl [Compound A1] ): 98.8

====

- TEST DESCRIPTION: Preliminary evaluation of pharmacokinetics in Beagle dogs
- Format: in vivo
- SETUP CONDITIONS: beagle, dog, plasma, oral, 3 mg/kg, intragastric 3 mg/kg; 1 h; mean; read-out: Plasma drug concentration in Beagle dogs
METRIC: concentration at 1 h (ng/mL)
Answer in ng/mL, number only, no unit symbol.

Recorded concentration at 1 h (compound "CC(C)Oc1ccc(-c2nc(-c3ccc(CN4CC(C(=O)O)C4)c4ccccc34)no2)cc1C#N.Cl" ): 281

====

- TEST DESCRIPTION: Preliminary assessment of pharmacokinetics in mice
- Format: in vivo, CD-1 mice
- SETUP CONDITIONS: male, CD-1, mouse, plasma, po, 2 mg/kg, title: oral 2 mg/kg; 2.00 h; individual animals 4-6; read-out: Concentration of A1 Drug in Plasma of Mice
- Protocol: Dosing Regimen 9 CD-1 mice, male, weighing 20-26 g, were randomly divided into 3 groups with 3 mice in each group. The test compounds were administered intragastric, intravenously or intraperitoneally according to the following protocol. […] The drug was given according to the above dose, the time of administration was recorded, and 20 μL of blood was taken from the femoral plexus of mice at the above set time points and placed in heparinized tubes. […]
METRIC: concentration at 2 h (ng/mL)
Answer in ng/mL, number only, no unit symbol.

Recorded concentration at 2 h (molecule "CC(C)Oc1ccc(-c2nc(-c3ccc(CN4CC(C(=O)O)C4)c4ccccc34)no2)cc1C#N.Cl" ): 49.2
